Form field: Kd (one value per entry).
- Measured target: T1, monomeric human CSF1R ectodomain protein (human, UniProt P07333 20-517)
- T1 construct: also called biotinylated monomeric human CSF1R
- Test summary: SPR Biacore, IgG captured, monomeric CSF1R analyte
Just the number in pM, nothing appended.

Some binders with recorded Kd:
# Binder, Kd (pM)
rows = [
    ("MH11 (antibody, human IgG4, V domains shown, Deimmunized MH5 derivative, human IgG4(S228P)/Ckappa IgG) VH: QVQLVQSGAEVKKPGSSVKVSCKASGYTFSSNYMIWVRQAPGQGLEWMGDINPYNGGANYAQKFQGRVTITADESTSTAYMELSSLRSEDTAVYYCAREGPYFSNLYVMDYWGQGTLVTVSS VL: EIVLTQSPATLSLSPGERATLSCRASQSVSYEGENYLNWYQQKPGQAPRAAIYAASNRATGIPARFSGSGSGTDFTLTISSPEPEDFAVYYCQLSNEDLLTFGGGTKVEIK", 776),
    ("MH40 (antibody, human IgG4, V domains shown, Deimmunized MH5 derivative, human IgG4(S228P)/Ckappa IgG) VH: QVQLVQSGAEVKKPGSSVKVSCKASGYTFSSHYMIWVRQAPGQGLEWMGDINPYNGGANYAQKFQGRVTITADESTSTAYMELSSLRSEDTAVYYCAREGPYFSNLYVMDYWGRGTLVTVSS VL: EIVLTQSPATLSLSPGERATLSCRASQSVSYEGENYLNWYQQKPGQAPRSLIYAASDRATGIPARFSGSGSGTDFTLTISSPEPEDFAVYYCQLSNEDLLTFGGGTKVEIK", 553),
]

-- ask So what does the record say about Kd for MH21 (antibody, human IgG4, V domains shown, Deimmunized MH5 derivative, human IgG4(S228P)/Ckappa IgG) VH: QVQLVQSGAEVKKPGSSVKVSCKASGYTFSSSYMIWVRQAPGQGLEWMGDINPYNGGANYAQKFQGRVTITADESTSTAYMELSSLRSEDTAVYYCAREGPYFSNLYVMDYWGQGTLVTVSS VL: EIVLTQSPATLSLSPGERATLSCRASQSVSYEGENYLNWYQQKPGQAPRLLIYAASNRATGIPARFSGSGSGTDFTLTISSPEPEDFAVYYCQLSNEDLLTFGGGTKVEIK ?
-- reply 1230
